Biological target: T1, ZFP SBS#297 (synthetic)
T1 chain: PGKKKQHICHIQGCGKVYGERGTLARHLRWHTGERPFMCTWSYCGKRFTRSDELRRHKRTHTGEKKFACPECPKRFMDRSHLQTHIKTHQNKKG
Test: EMSA
Details: tags: MBP fusion
pKd: −log10 of the molar value.
Observation type: pKd

1. TGCGCGGCC (dsDNA) DNA 1: TGCGCGGCC DNA 2: GGCCGCGCA :: 6.30
